Origin of measurements: ChEMBL document CHEMBL1201862

Assay target: Intestinal-type alkaline phosphatase (Mus musculus)
Sequence (P24822 whole entry): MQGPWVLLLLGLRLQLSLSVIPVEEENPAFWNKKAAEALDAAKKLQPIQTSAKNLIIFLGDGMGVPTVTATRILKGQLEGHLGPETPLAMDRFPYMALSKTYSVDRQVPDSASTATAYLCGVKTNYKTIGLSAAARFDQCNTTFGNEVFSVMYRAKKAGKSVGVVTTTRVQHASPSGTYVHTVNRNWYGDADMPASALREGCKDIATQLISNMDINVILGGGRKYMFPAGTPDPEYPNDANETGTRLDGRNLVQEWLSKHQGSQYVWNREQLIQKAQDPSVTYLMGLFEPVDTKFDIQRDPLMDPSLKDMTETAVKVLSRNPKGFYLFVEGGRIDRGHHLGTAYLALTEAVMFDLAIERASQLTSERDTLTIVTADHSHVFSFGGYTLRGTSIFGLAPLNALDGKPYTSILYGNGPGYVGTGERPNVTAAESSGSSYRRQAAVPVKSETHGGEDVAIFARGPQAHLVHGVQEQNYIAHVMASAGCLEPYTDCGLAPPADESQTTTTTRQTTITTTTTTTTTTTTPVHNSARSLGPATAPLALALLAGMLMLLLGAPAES
Assay comment: PubChem AID 488785
Type: functional
Activity calls are given as the source filed them. The rule behind the calls is not given here.
Measured property: IC50

CCOC(=O)c1ccc(N2CCN(c3ccccc3F)CC2)c(NC(=O)Nc2cccc(OC)c2)c1 ... 6.54 µM (active)
O=C(NC1CCCCC1)Oc1cc2oc(=O)sc2cc1Cl ... 3.78 µM (active)
O=C(N/N=C/c1cn(Cc2cccc(F)c2)c2ccccc12)c1cc(O)cc(O)c1 ... 2.7 µM (active)

Q: Which value of IC50 has been reported for "CCn1c(SCC(=O)c2ccc(O)c(O)c2)nnc1-c1ccccc1OC" in the records?
Result: 1.43 µM (active)

Q: Then "COc1ccc(C(=O)OCC(=O)Nc2ncc([N+](=O)[O-])s2)cc1OC" ?
Result: 8.79 µM (active)
